Consider the following compounds and their measured IC50 readings.
target: Gonadotropin-releasing hormone receptor (Rattus norvegicus, UniProt P30969); experiment: Inhibition of binding of radiolabeled histrelin to Gonadotropin-releasing hormone receptor (GnRHr) in rat pituitary gland membranes
Sequence (P30969 whole entry): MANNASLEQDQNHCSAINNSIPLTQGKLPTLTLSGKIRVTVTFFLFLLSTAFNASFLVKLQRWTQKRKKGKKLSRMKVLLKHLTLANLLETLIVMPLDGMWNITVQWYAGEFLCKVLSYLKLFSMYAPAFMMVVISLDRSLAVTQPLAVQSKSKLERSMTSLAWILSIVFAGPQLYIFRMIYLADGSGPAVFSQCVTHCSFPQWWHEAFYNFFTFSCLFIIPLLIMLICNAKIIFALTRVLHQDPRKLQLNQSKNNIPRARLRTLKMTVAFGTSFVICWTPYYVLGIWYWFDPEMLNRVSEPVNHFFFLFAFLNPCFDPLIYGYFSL
Provide the reading as a plain figure in nM.

Please review the following examples before continuing.
compound | unit | IC50
CC(=O)Nc1ccc(C[C@H](NC(=O)[C@@H](NC(=O)CO)NC(=O)[C@@H](Cc2cccnc2)NC(=O)[C@@H](Cc2ccc(Cl)cc2)NC(=O)[C@@H](Cc2ccc3ccccc3c2)NC(C)=O)C(=O)N[C@H](Cc2ccc(NC(C)=O)cc2)C(=O)N[C@@H](CC(C)C)C(=O)N[C@@H](CCCCNC(C)C)C(=O)N2CCC[C@H]2C(=O)N[C@H](C)C(N)=O)cc1 (single isomer, unassigned) | nM | 0.056
CC(=O)Nc1ccc(C[C@H](NC(=O)[C@H](NC(=O)[C@@H](Cc2cccnc2)NC(=O)[C@@H](Cc2ccc(Cl)cc2)NC(=O)[C@@H](Cc2ccc3ccccc3c2)NC(C)=O)N(C)C=O)C(=O)N[C@H](Cc2ccc(NC(C)=O)cc2)C(=O)N[C@@H](CC(C)C)C(=O)N[C@@H](CCCCNC(C)C)C(=O)N2CCC[C@H]2C(=O)N[C@H](C)C(N)=O)cc1 (single isomer, unassigned) | nM | 0.9

*Q* # lookup: IC50 of CC(=O)Nc1ccc(C[C@H](NC(=O)[C@H](CO)NC(=O)[C@@H](Cc2cccnc2)NC(=O)[C@@H](Cc2ccc(Cl)cc2)NC(=O)[C@@H](Cc2ccc3ccccc3c2)NC(C)=O)C(=O)N[C@H](Cc2ccc(NC(C)=O)cc2)C(=O)N[C@@H](CC(C)C)C(=O)NC(NC(=O)CNC(=N)N)C(=O)N2CCC[C@H]2C(=O)N[C@H](C)C(N)=O)cc1 (stereo partly drawn)
*A* 0.74
